- system: UniProtKB P04746
- Sequence (P04746 16-511): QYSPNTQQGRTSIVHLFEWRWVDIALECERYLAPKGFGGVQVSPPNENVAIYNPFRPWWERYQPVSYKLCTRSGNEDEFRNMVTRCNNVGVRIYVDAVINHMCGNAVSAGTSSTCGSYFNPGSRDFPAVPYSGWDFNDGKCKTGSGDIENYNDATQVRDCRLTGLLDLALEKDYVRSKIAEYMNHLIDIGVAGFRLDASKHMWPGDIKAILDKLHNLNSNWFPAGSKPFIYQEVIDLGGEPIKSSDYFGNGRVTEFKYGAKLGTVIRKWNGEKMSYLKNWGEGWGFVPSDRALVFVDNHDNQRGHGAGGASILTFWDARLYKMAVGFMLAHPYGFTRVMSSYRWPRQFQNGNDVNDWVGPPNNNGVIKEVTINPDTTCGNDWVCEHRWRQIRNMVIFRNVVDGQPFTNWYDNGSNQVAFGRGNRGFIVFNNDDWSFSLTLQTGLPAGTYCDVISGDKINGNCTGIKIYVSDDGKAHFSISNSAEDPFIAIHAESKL
result_type: IC50 (µM)
Number in µM, nothing else.

Consider Oc1cc(O)c2c(c1)O[C@@H](c1ccc(O)c(O)c1)[C@H](O)C2 [Catechin, (−)-catechin] . Its measured IC50 is 30.8
